- Test system: Saccharomyces cerevisiae
- assay-notes: protein stability index of tFT-peptide fusion (C-terminal peptide) (PSI (0-1 scale)); higher = more stable (slower turnover);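 note: PSI is a weighted mean of sequencing reads over stability bins, variants kept only with over 10 reads, mCherry proximal and sfGFP distal, peptide attached via GGGS linker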
- reported-conditions: genetic background: wild type; temperature: 30 C
Overview of reported protein stability index across a group of sequences:

# chain, protein stability index
rows = [
    ("FRVKVFGLPFWL", 0.509),
    ("ANAPPTASFSPP", 0.674),
]

What is its protein stability index for Saccharomyces cerevisiae? Entry: APRPPPCPRPGT
0.75

Form entry - test system: Saccharomyces cerevisiae; read-out: protein stability index; sequence: KNVFLIRGRKNC
0.356

I'm curious: which protein stability index was measured for PPSLPPLISFSP tested on Saccharomyces cerevisiae?
0.729

Record lookup: for Saccharomyces cerevisiae, what protein stability index belongs to MLSFTQRYYSAI ?
0.64

Lab request: please report protein stability index under test system Saccharomyces cerevisiae for NKRKKKRTEPQP
0.661

Query protein stability index on Saccharomyces cerevisiae for FPVSPFPPPPSS
0.742

Give protein stability index (Saccharomyces cerevisiae) of the following sequence: KEKNKIKNREVK
0.618

Record lookup: for Saccharomyces cerevisiae, what protein stability index belongs to RSLGLVGWGFWG ?
0.762

Checklist item: protein stability index tested on Saccharomyces cerevisiae, entry HSALLRSASLSF , value?
0.705

// fetch Saccharomyces cerevisiae protein stability index for KKNQNSKNRKEN
0.627

Hello, I am looking for reported protein stability index with Saccharomyces cerevisiae for PFFVLFSLAFLF . Could you help?
0.279

I'm curious: which protein stability index was measured for RLGGRGGRLGAE tested on Saccharomyces cerevisiae?
0.655

Provide the documented protein stability index with Saccharomyces cerevisiae as the system for PPPPPPSPLGPP
0.674

// fetch Saccharomyces cerevisiae protein stability index for LVMTYGFTSVSR
0.687

Find protein stability index (Saccharomyces cerevisiae) for the entry FKYRVPLVGVVK
0.347

Please tell me: protein stability index of NRLVQNRQVQLY , system Saccharomyces cerevisiae?
0.682

Short answer please: protein stability index, Saccharomyces cerevisiae, entry WSGDLRNIEFAR
0.816

----------
- System: Saccharomyces cerevisiae
- assay-notes: protein stability index of tFT-peptide fusion (C-terminal peptide) (PSI (0-1 scale)); higher = more stable (slower turnover)
- reported-conditions: genetic background: wild type; temperature: 37 C
Kind request: treat 0.5 as inclusive, so protein stability index at 0.5 or higher is yes, anything lower is no.

# chain, category
rows = [
    ("FVCWGSLILCGG", "no"),
]

Is protein stability index at least 0.5? Consider VWSCILPMVYVW
no

Answer whether protein stability index of PSSVKLRVPSLY is greater than or equal to 0.5.
yes

State whether the measured protein stability index reaches 0.5, counting equality as reaching it, for VCVWVDILAFCS
no

Could you verify whether the entry VRRFNVLLYVRG shows protein stability index of no less than 0.5?
yes

Check if protein stability index >= 0.5 (inclusive). Item: PPPLPFPTPPPS
yes

State whether the measured protein stability index reaches 0.5, counting equality as reaching it, for VLRLLARRHAMV
no

Is protein stability index for RPPSLVFLFLLT at or above 0.5?
yes

Evaluate LSPPLRHRLTPP : protein stability index at minimum 0.5?
yes

Is reported protein stability index greater than or equal to 0.5 here: WVCCFVWGCLIR
no

Assess whether reported protein stability index for YRHYGVARKKLA sits at 0.5 or higher.
no

Confirm if protein stability index reported for the sequence CFVSFLHLLYFS is 0.5 or above.
no

Identify whether the reported protein stability index of the following sequence is 0.5 or greater: KNVFLIRGRKNC
no

Hello, I need to know if GYSMPVSFFFAL has measured protein stability index not below 0.5. Thanks!
no

# check: protein stability index of CHFLLHYVFLLS is greater than or equal to 0.5
no

Decide: protein stability index of CLEHLVYCRLAS >= 0.5?
no

Kindly determine if protein stability index recorded for LSFLLLLGCFGS is above or exactly 0.5.
yes

Say whether LVIFSLLFSFSH shows protein stability index of 0.5 or more.
no

Reference for the values: the supplement of paper PMC10724198
